Ref: PubChem BioAssay AID2202554

Tested on: S. typhimurium/E. coli reverse mutation, colony counts
Assay: Bacterial reverse mutation test (aka Ames test) summary data;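 note: His-minus Salmonella and trp-minus E. coli WP2 uvrA pKM101 with or without liver S9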
Inconclusive results are not listed. The source made the active and inactive calls. The rule behind the calls is not given here.
Tick one outcome: active, inactive

Problem: # fetch the recorded call for CC(=O)C(N=Nc1ccc(-c2ccc(N=NC(C(C)=O)C(=O)Nc3ccccc3)c(Cl)c2)cc1Cl)C(=O)Nc1ccccc1 (stereo not given) here
Solution: inactive

Problem: Could you kindly confirm the outcome this assay logged for Cc1ccc(C(=O)O)cc1 ?
Solution: inactive

Problem: // return assay outcome for Cc1c(N)cccc1Cl
Solution: inactive

Problem: Just curious, what result did CCOC(=O)CC(SP(=S)(OC)OC)C(=O)OCC (stereo not given) get here?
Solution: inactive

Problem: Tell me the recorded outcome of this test for C[C@H](CCC(=O)O)[C@H]1CC[C@H]2[C@@H]3CC[C@@H]4C[C@H](O)CC[C@]4(C)[C@H]3CC[C@]12C .
Solution: inactive
